test system: Fibroblast; experiment: Multiplex assay against human fibroblast; type: toxicity, cell-based; conditions: 48 h, 10 µM, compound concentration 10 uM, replicate 2
Population Mitotic Cells (%) strictly less than 60% = 1.0. Otherwise 0.0.

INSERT INTO measurements (molecule, label_class) VALUES
  ('O=C(NCCO)c1cccc(-c2cc(Nc3ccc(OC(F)(F)F)cc3)ncn2)c1', 1.0),
  ('Cc1ccccc1C(=O)Nc1ccc(C(=O)N2CCCC(N(C)C)c3ccccc32)cc1.Cl (stereo not given)', 1.0),
  ('O=C(O)Cc1ccccc1Nc1c(Cl)cccc1Cl', 0.0),
  ('CC1(COc2ccc3c(c2)ncn3-c2ccc3cccc(N4CCC(N)CC4)c3n2)COC1', 0.0);

Please turn your attention to the following entry.
Say whether its Population Mitotic Cells (%) is strictly beneath 60%. Entry: Cc1ccc(/C(=C\CN2CCCC2)c2ccccn2)cc1
1.0

---

Listing of recorded Population Fragmented Nuclei (%) by entry.
system: U2OS; assay: Multiplex assay against U2OS; format: toxicity, cell-based; conditions: human, 48 h, 10 µM, compound concentration 10 uM, replicate 2
Respond numerically; units are % and should not be typed.

INSERT INTO results (molecule, study_system, unit_abbreviation, value) VALUES
  ('COc1cc(C(=O)N(CCCc2ccccc2)Cc2ccc(CC(=O)O)cc2)cc(OC)c1C', 'U2OS', '%', 15);

Entry O=C(O)c1cc2ccccc2c(Cc2c(O)c(C(=O)O)cc3ccccc23)c1O [PAMOIC ACID] needs its Population Fragmented Nuclei (%) filled in; supply it.
20

---

test system: HEK-293T; experiment: Multiplex assay against HEK293T; format: toxicity, cell-based; settings: human, 12 h, 10 µM, compound concentration 10 uM, replicate 1
The molecules listed here are annotated with their Total Cell Count.
I only need the number, thanks.

Please give measured Total Cell Count of the following entry: N#Cc1c(N)nc(SCc2csc(-c3ccc(Cl)cc3)n2)c(C#N)c1-c1ccc(OCCO)cc1
307

Quote Total Cell Count reported for O=C(O)c1cc2ccccc2c(Cc2c(O)c(C(=O)O)cc3ccccc23)c1O please.
446

Retrieve Total Cell Count measured for O=C(NCCO)c1cccc(-c2cc(Nc3ccc(OC(F)(F)F)cc3)ncn2)c1 and print it.
374

Determine from records and report Total Cell Count for O=C(NCC(=O)N1CC[C@H](N[C@H]2CC[C@@](O)(c3ccc(-c4ncccn4)cn3)CC2)C1)c1cccc(C(F)(F)F)c1
358

Read off the recorded Total Cell Count for CCCC(CCC)C(=O)O
455

Note down Total Cell Count recorded for c1cc(OCCCN2CCCCC2)ccc1CN1CCCCC1
328

Quote Total Cell Count reported for O=C(O)Cc1ccccc1Nc1c(Cl)cccc1Cl please.
480

Please supply the value of reported Total Cell Count for the item COc1cc(C(=O)N(CCCc2ccccc2)Cc2ccc(CC(=O)O)cc2)cc(OC)c1C
431

Look up and report measured Total Cell Count for this entry: Cc1ccc(-c2ccc(F)cc2COc2ccc(CCC(=O)O)cc2)cc1
329

---

test system: HEK-293T; experiment: Multiplex assay against HEK293T; assay type: toxicity, cell-based; settings: human, 24 h, 10 µM, compound concentration 10 uM, replicate 1
Strictly below 5% in Population Hoechst High Intensity Objects (%): Fulfilled. Otherwise: Not fulfilled.

hey, is Population Hoechst High Intensity Objects (%) for CNC[C@H](O)c1ccc(O)c(O)c1 [EPINEPHRINE] lower than 5% or not?
Not fulfilled

Is the reported Population Hoechst High Intensity Objects (%) for C[C@H](NC(=O)c1c(C(F)F)nn(C)c1Oc1cccc(C(F)(F)F)c1)c1ccc(C(=O)O)cc1 [PALUPIPRANT] strictly below 5%?
Fulfilled

Given the entry CCNC1(C(N)=O)CCN(c2ncnc3c2nc(-c2ccccc2Cl)n3-c2ccc(Cl)cc2)CC1 [OTENABANT] , would its reported Population Hoechst High Intensity Objects (%) be below 5%?
Not fulfilled

Field: below-cutoff. Rule: recorded Population Hoechst High Intensity Objects (%) strictly less than 5%. Subject: Cc1ccc(/C(=C\CN2CCCC2)c2ccccn2)cc1 [TRIPROLIDINE]
Not fulfilled

is_below(Population Hoechst High Intensity Objects (%), 5%) for Cc1ccc(F)cc1C(=O)Nc1ccc(C(=O)N2Cc3cccn3Cc3ccccc32)c(Cl)c1 [LIXIVAPTAN] ?
Not fulfilled
